Consider the following compounds; for each one, report its EC50.
- target_system: GPR7 (Homo sapiens, UniProt P48145)
- Construct: expressed in transfected cells; host or cells: HEK293/CRE-BLA cells (AURORA), expression vector pIRES-hygro (Clontech)
- Sequence (P48145 whole entry): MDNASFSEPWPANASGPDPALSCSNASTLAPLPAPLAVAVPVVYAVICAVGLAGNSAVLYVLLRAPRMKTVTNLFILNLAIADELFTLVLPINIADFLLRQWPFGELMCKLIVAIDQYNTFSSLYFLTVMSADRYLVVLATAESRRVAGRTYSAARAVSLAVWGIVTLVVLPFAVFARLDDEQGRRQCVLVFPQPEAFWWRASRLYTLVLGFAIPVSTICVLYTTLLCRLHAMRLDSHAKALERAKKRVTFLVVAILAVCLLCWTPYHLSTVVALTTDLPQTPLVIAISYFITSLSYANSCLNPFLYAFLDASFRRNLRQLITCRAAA
- assay_overview: Measurement of activation capacity on GPR7 (CRE-BLA beta-lactamase reporter assay)
- Format: cell-based
- condition_description: Table 1; HEK293/CRE-BLA cells expressing GPR7; forskolin 1 µM; 3 hours at 37°C
Non-standard residues stand in square brackets, D forms with d. Residues, ends and D or L forms follow the SMILES beside them. Ava = NCCCCC(=O)O
API: value field is a number in nM; no unit string.

Need EC50, item CC(C)C[C@H](NC(=O)CNC(=O)[C@H](CO)NC(=O)[C@H](CC(C)C)NC(=O)[C@H](CC(C)C)NC(=O)CNC(=O)[C@H](C)NC(=O)[C@H](C)NC(=O)[C@H](CCCNC(=N)N)NC(=O)CNC(=O)CCCCNC(=O)CCCCNC(=O)[C@H](CCCCN)NC(=O)[C@H](Cc1ccc(O)cc1)NC(=O)[C@@H](N)Cc1c[nH]c2ccccc12)C(N)=O [compound 6] (H-WYK[Ava][Ava]GRAAGLLSGL-NH2)
2.2

Next entry: CC(C)C[C@H](NC(=O)CNC(=O)[C@H](CO)NC(=O)[C@H](CC(C)C)NC(=O)[C@H](CC(C)C)NC(=O)CNC(=O)[C@H](C)NC(=O)[C@H](C)NC(=O)[C@H](CCCNC(=N)N)NC(=O)CNC(=O)CCCCNC(=O)CCCCNC(=O)CCCCNC(=O)[C@H](CCCCN)NC(=O)[C@H](Cc1ccc(O)cc1)NC(=O)[C@@H](N)Cc1c[nH]c2ccccc12)C(N)=O [compound 7] (H-WYK[Ava][Ava][Ava]GRAAGLLSGL-NH2)
0.48

Moving on to CC(C)C[C@H](NC(=O)CNC(=O)[C@H](CO)NC(=O)[C@H](CC(C)C)NC(=O)[C@H](CC(C)C)NC(=O)CNC(=O)[C@H](C)NC(=O)[C@H](C)NC(=O)[C@H](CCCNC(=N)N)NC(=O)CNC(=O)CCCCNC(=O)[C@H](CCCCN)NC(=O)[C@H](Cc1ccc(O)cc1)NC(=O)[C@@H](N)Cc1c[nH]c2ccccc12)C(N)=O [compound 5] (H-WYK[Ava]GRAAGLLSGL-NH2)
1.7

What do we get for CC(C)C[C@H](NC(=O)CNC(=O)[C@H](CO)NC(=O)[C@H](CC(C)C)NC(=O)[C@H](CC(C)C)NC(=O)CNC(=O)[C@H](C)NC(=O)[C@H](C)NC(=O)[C@H](CCCNC(=N)N)NC(=O)CNC(=O)CCCCNC(=O)CCCCNC(=O)CCCCNC(=O)CCCCNC(=O)[C@H](CCCCN)NC(=O)[C@H](Cc1ccc(O)cc1)NC(=O)[C@@H](N)Cc1c[nH]c2ccccc12)C(N)=O [compound 8] (H-WYK[Ava][Ava][Ava][Ava]GRAAGLLSGL-NH2) ?
1.2

Can you check `CC(C)C[C@H](NC(=O)CNC(=O)[C@H](CO)NC(=O)[C@H](CC(C)C)NC(=O)[C@H](CC(C)C)NC(=O)CNC(=O)[C@H](C)NC(=O)[C@H](C)NC(=O)[C@H](CCCNC(=N)N)NC(=O)CNC(=O)[C@@H](NC(=O)[C@H](CO)NC(=O)[C@H](Cc1ccc(O)cc1)NC(=O)[C@H](CO)NC(=O)[C@H](CO)NC(=O)[C@H](Cc1cnc[nH]1)NC(=O)CNC(=O)[C@H](C)NC(=O)[C@H](C)NC(=O)[C@@H]1CCCN1C(=O)[C@H](CCCCN)NC(=O)[C@H](Cc1ccc(O)cc1)NC(=O)[C@@H](N)Cc1c[nH]c2ccccc12)C(C)C)C(N)=O` next?
0.24

----------
- target_system: GPR8 (Homo sapiens)
- Construct: expressed in transfected cells; host or cells: HEK293/CRE-BLA cells (AURORA), expression vector pIRES-hygro (Clontech)
- assay_overview: Binding inhibition test with [125I]-[Phe2]-hNPW(1-23), GPR8 membrane preparation
- condition_description: Table 1, membrane preparation of HEK293/CRE-BLA cells expressing GPR8, 1 hour at room temperature
Non-standard residues stand in square brackets, D forms with d. Residues, ends and D or L forms follow the SMILES beside them. Ava = NCCCCC(=O)O
observable: IC50 (nM)
The reply should be a number in nM, with the unit left off.

Form: Entry = CC(C)C[C@H](NC(=O)CNC(=O)[C@H](CO)NC(=O)[C@H](CC(C)C)NC(=O)[C@H](CC(C)C)NC(=O)CNC(=O)[C@H](C)NC(=O)[C@H](C)NC(=O)[C@H](CCCNC(=N)N)NC(=O)CNC(=O)CCCCNC(=O)CCCCNC(=O)CCCCNC(=O)[C@H](CCCCN)NC(=O)[C@H](Cc1ccc(O)cc1)NC(=O)[C@@H](N)Cc1c[nH]c2ccccc12)C(N)=O [compound 7] (H-WYK[Ava][Ava][Ava]GRAAGLLSGL-NH2) | System = GPR8 (Homo sapiens) | IC50 = ____
260

Moving on to CC(C)C[C@H](NC(=O)CNC(=O)[C@H](CO)NC(=O)[C@H](CC(C)C)NC(=O)[C@H](CC(C)C)NC(=O)CNC(=O)[C@H](C)NC(=O)[C@H](C)NC(=O)[C@H](CCCNC(=N)N)NC(=O)CNC(=O)CCCCNC(=O)CCCCNC(=O)CCCCNC(=O)CCCCNC(=O)[C@H](CCCCN)NC(=O)[C@H](Cc1ccc(O)cc1)NC(=O)[C@@H](N)Cc1c[nH]c2ccccc12)C(N)=O [compound 8] (H-WYK[Ava][Ava][Ava][Ava]GRAAGLLSGL-NH2)
360

Now give it for CC(C)C[C@H](NC(=O)CNC(=O)[C@H](CO)NC(=O)[C@H](CC(C)C)NC(=O)[C@H](CC(C)C)NC(=O)CNC(=O)[C@H](C)NC(=O)[C@H](C)NC(=O)[C@H](CCCNC(=N)N)NC(=O)CNC(=O)CCCCNC(=O)[C@H](CCCCN)NC(=O)[C@H](Cc1ccc(O)cc1)NC(=O)[C@@H](N)Cc1c[nH]c2ccccc12)C(N)=O [compound 5] (H-WYK[Ava]GRAAGLLSGL-NH2) too.
310

----------
- target_system: GPR8 (Homo sapiens, UniProt P48146)
- Construct: expressed in transfected cells; host or cells: HEK293/CRE-BLA cells (AURORA), expression vector pIRES-hygro (Clontech)
- Sequence (P48146 whole entry): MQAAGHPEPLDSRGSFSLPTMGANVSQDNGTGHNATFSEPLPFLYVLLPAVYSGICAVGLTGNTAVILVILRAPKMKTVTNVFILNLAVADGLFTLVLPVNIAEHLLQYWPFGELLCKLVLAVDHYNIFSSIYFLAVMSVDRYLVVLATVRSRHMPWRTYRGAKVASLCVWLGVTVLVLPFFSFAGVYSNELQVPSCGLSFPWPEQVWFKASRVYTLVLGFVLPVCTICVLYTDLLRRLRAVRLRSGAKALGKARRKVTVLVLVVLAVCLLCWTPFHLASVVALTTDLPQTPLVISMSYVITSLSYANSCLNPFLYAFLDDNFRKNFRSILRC
- assay_overview: Binding inhibition test with [125I]-[Phe2]-hNPW(1-23), GPR8 membrane preparation
- condition_description: Table 2, membrane preparation of cells expressing GPR8
Non-standard residues stand in square brackets, D forms with d. Residues, ends and D or L forms follow the SMILES beside them. 3Abz = Nc1cccc(C(=O)O)c1; 4Abz = Nc1ccc(C(=O)O)cc1; Ava = NCCCCC(=O)O
Can you tell me IC50 for the items I'm about to list?
Your answer is read as nM, so omit the unit and give the number.

Report IC50 for CC(C)C[C@H](NC(=O)CNC(=O)[C@H](CO)NC(=O)[C@H](CC(C)C)NC(=O)[C@H](CC(C)C)NC(=O)CNC(=O)[C@H](C)NC(=O)[C@H](C)NC(=O)[C@H](CCCNC(=N)N)NC(=O)CNC(=O)CCCCNC(=O)c1cccc(NC(=O)CCCCNC(=O)[C@H](CCCCN)NC(=O)[C@H](Cc2ccc(O)cc2)NC(=O)[C@@H](N)Cc2c[nH]c3ccccc23)c1)C(N)=O [compound 14] (H-WYK[Ava][3Abz][Ava]GRAAGLLSGL-NH2) please.
16

One more molecule: CC(C)C[C@H](NC(=O)CNC(=O)[C@H](CO)NC(=O)[C@H](CC(C)C)NC(=O)[C@H](CC(C)C)NC(=O)CNC(=O)[C@H](C)NC(=O)[C@H](C)NC(=O)[C@H](CCCNC(=N)N)NC(=O)CNC(=O)CCCCNC(=O)CCCCNC(=O)c1ccc(NC(=O)[C@H](CCCCN)NC(=O)[C@H](Cc2ccc(O)cc2)NC(=O)[C@@H](N)Cc2c[nH]c3ccccc23)cc1)C(N)=O [compound 18] (H-WYK[4Abz][Ava][Ava]GRAAGLLSGL-NH2)
190

Same again, this time with CC(C)C[C@H](NC(=O)CNC(=O)[C@H](CO)NC(=O)[C@H](CC(C)C)NC(=O)[C@H](CC(C)C)NC(=O)CNC(=O)[C@H](C)NC(=O)[C@H](C)NC(=O)[C@H](CCCNC(=N)N)NC(=O)CNC(=O)CCCCNC(=O)c1ccc(NC(=O)CCCCNC(=O)[C@H](CCCCN)NC(=O)[C@H](Cc2ccc(O)cc2)NC(=O)[C@@H](N)Cc2c[nH]c3ccccc23)cc1)C(N)=O [compound 15] (H-WYK[Ava][4Abz][Ava]GRAAGLLSGL-NH2)
34
